# testedOn: MYC bHLHZip (Homo sapiens)
# Construct: 6xHis (N); made in house; host or cells: E. coli BL21 (DE3), pET28a; purified in denaturing conditions
# Sequence (P01106 367-447 limits assumed): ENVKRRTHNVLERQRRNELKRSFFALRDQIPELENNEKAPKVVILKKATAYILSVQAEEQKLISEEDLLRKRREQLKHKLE
# methodDescription: SPR direct binding to immobilized MYC
# conditionDetails: 1:1 Langmuir model, four kinetic experiments; read-out: KD for MYC bHLHZip, SPR kinetic experiments, average
measureName: Kd (µM)
Write the number in µM without appending the unit.

Challenge: Write Kd of CCOc1ccc2nc3cc(/N=N/c4ccc(N)nc4N)ccc3c(N)c2c1 [MYCMI-6] ; system used: MYC bHLHZip (Homo sapiens)
Response given: 1.6

====

# testedOn: MYC bHLHZip (Homo sapiens)
# Construct: 6xHis (N); made in house; host or cells: E. coli BL21 (DE3), pET28a; purified in denaturing conditions
# methodDescription: SPR direct binding to immobilized MYC
# conditionDetails: Langmuir 1:1, constant Rmax 43 RU; read-out: KD for MYC bHLHZip, SPR, one representative kinetic experiment
measureName: Kd (nM)
Write the number in nM without appending the unit.

Challenge: Give the reported value of Kd for this record: CCOc1ccc2nc3cc(/N=N/c4ccc(N)nc4N)ccc3c(N)c2c1
Response given: 2500

====

# testedOn: MYC bHLHZip (Homo sapiens)
# Construct: 6xHis (N); made in house; host or cells: E. coli BL21 (DE3), pET28a; purified in denaturing conditions
# methodDescription: SPR direct binding to immobilized MYC
# conditionDetails: 50% of Rmax, four equilibrium experiments; read-out: KD for MYC bHLHZip, SPR equilibrium binding plot
measureName: Kd

Challenge: Give the reported value of Kd for this record: CCOc1ccc2nc3cc(/N=N/c4ccc(N)nc4N)ccc3c(N)c2c1 [MYCMI-6]
Response given: 1.5 to 2 µM

Cited source for all entries: paper PMC6030159
